Tested on: MOLT-4 leukemia
Assay: NCI-60 one-dose screen, 48 h (100 = growth as untreated, 0 = no growth, -100 = all killed)
Settings: 10 µM unless noted
The panel holds about 83,000 compounds, 20% with a hit somewhere; the sample as a whole holds those more often.
Listing of recorded growth by entry.
Reported Metric: growth (%)

>>> test_result("CCN(CC)CC#CCOC(=O)[C@]1(C)CCC[C@]2(C)[C@H]3C[C@H]4C(C(C)C)=C[C@]3(CC[C@H]21)[C@@H]1C(=O)CCC(=O)[C@@H]14")
10.7
>>> test_result("CCOC(=O)C(=Cc1c(-c2ccccc2)[nH]c2ccccc12)C(=O)OCC")
1.38
>>> test_result("COCCOCCOCc1n(Cc2ccc3ccccc3c2)c2ccccc2[n+]1Cc1ccc2ccccc2c1")
4
>>> test_result("OCCNc1nc(NCCO)nc(Nc2ccc(C3=NN(c4cc(Cl)cc(Cl)c4)C(c4ccc(C(F)(F)F)cc4)C3)cc2)n1 (centres undefined)")
7.9

====

Listed here: items and their measured growth.
System: HOP-92 NSCLC
Test: NCI-60 one-dose screen, 48 h (100 = growth as untreated, 0 = no growth, -100 = all killed)
Conditions: 10 µM unless noted
This is part of a sample that, as a whole, favours compounds with a hit. Of some 83,000 tested, about 20% had one in any assay.
Reported Metric: growth (%)

>>> test_result("CC1(C)Cc2c(Br)c(Br)c(Br)c(OCC(O)CN3CCOCC3)c2O1 (centres undefined)")
-38.2
>>> test_result("FC(F)(F)c1ccc2c(Nc3cccc(C4CC(c5ccccc5)=NN4c4ccc(Cl)cc4)c3)ccnc2c1 (centres undefined)")
47.5
>>> test_result("CCCn1c2cc(OCc3cn(-c4ccc(Cl)cc4)nn3)ccc2c2ccnc(C)c21")
50.5
>>> test_result("O=C(N/N=C/C[C@@H]1[C@@H](/C=C/[C@@H](O)COc2cccc(Cl)c2)[C@H](O)C[C@@H]1O)c1ccncc1")
93.7
>>> test_result("COc1ccc(Cc2nc(C#N)c(N3CCN(c4ccc(F)cc4)CC3)o2)cc1")
88.2
>>> test_result("C=CCn1c(SCC(=O)Nc2ccc(C(=O)/C=C/c3cc(OC)c(OC)c(OC)c3)cc2)nnc1-c1ccccc1")
150
>>> test_result("C#CCN1C(=O)c2ccccc2N(CC#C)C12CCN(Cc1cn(CC(=O)Nc3ccccc3C(N)=O)nn1)CC2")
107
>>> test_result("COc1ccc2nc3nc4ccc[nH]c4cc3c2c1")
122
>>> test_result("COc1ccc2cc(/C=C3\\N=C(c4cc(OC)c(OC)c(OC)c4)OC3=O)c(OC)nc2c1")
97.7

====

System: DU-145 prostate
Assay: NCI-60 one-dose screen, 48 h (100 = growth as untreated, 0 = no growth, -100 = all killed)
Settings: 10 µM unless noted
Protocol: Cells are grown in 96 well plates and exposed to the test compound for 48 hours. Compounds are tested at a single concentration, which is 10^-5 M for most compounds. The reported endpoint is percent growth (GI% or GIPRCNT), where numbers from 0 - 100% represent growth inhibition, and numbers from -100% - 0 represent cell death. For example, a value of 40 represents 60% growth inhibition. A value of 0 means no net growth occurred over the course of the experiment. […]
This is part of a sample that, as a whole, favours compounds with a hit. Of some 83,000 tested, about 20% had one in any assay.
Binned growth; ranges: lower (below 20%), middle (20% to below 90%), upper (90% or more)

>>> class_name("NS(=O)(=O)c1ccc(N2Cc3cc(Cl)ccc3OC3=C2C(=O)N(CC2CCCCC2)C3=O)cc1")
"lower"
>>> class_name("COc1ccc2oc(=O)cc(-c3nc4ccc(N)cc4[nH]3)c2c1")
"upper"
>>> class_name("COc1ccc(NC(=O)Nc2ccc(Nc3nc(C)cc(Nc4ccc(C)cc4)n3)cc2)cc1")
"lower"
>>> class_name("Nc1c(C(=O)Nc2cccc3ccccc23)sc2nc3c(cc12)CCCCCC3")
"lower"
>>> class_name("O=C(Nc1cc(Br)ccn1)c1cc2cc(Nc3nc(-c4ccccc4)nc4ccccc34)ccc2oc1=O")
"upper"
>>> class_name("CCCCn1c(=O)c(/C=C/C(=O)/C=C/c2cc3ccccc3n(CCCC)c2=O)cc2ccccc21")
"lower"
>>> class_name("COC(=O)CCc1cc(O)c2c(c1)[C@@H](C(=O)OC)[C@H](c1ccc(O)c(O)c1)O2")
"upper"
>>> class_name("CC(/C=C/c1ccccc1)=N/NC(=O)c1ccncc1")
"upper"
>>> class_name("CCN1CCC[C@H]1c1cc(O)c2c(c1OC)C[C@H]1C[C@H]3[C@H](N)C(=O)C(C(N)=O)=C(O)[C@@]3(O)C(=O)C1=C2O")
"lower"
>>> class_name("CNc1cccc2c1C(=O)c1cccc(N)c1C2=O")
"middle"
>>> class_name("COc1ccc2c(c1)/C(=C1\\S/C(=N/c3nnc(C)s3)NC1=O)C(=O)N2Cc1ccc(Cl)cc1")
"middle"
>>> class_name("C=C1C(=O)O[C@H]2[C@H]1CCC(/C=N/c1ncc(Br)cc1N)=C\\CC[C@@]1(C)O[C@@H]21")
"lower"
>>> class_name("Cc1cc(C)n(-c2nc(-c3cccs3)c(C#N)c(=O)[nH]2)n1")
"upper"
>>> class_name("O=c1[nH]nc(-c2ccccc2)c2sc(NC(=S)Nc3ccc(Cl)cc3)nc12")
"upper"
>>> class_name("COc1ccccc1Nc1nnc(-c2ccc(Cl)cc2)o1")
"middle"
>>> class_name("O=C1c2ccccc2C(=O)c2c1oc1c2c(=O)[nH]c2ccccc21")
"middle"
>>> class_name("CNC(=O)c1cc(Oc2ccc3c(c2)sc2nc(-c4ccc(NC(C)=O)cc4)cn23)ccn1")
"middle"
>>> class_name("COc1c(O)cc2oc3cc(O[C@@H]4OC(C)[C@@H](O)[C@H](O)C4O)c(CC=C(C)C)c(O)c3c(=O)c2c1CC=C(C)C (stereo not given in full)")
"upper"

====

Test system: A498 renal
Experiment: NCI-60 one-dose screen, 48 h (100 = growth as untreated, 0 = no growth, -100 = all killed)
Settings: 10 µM unless noted
This is part of a sample that, as a whole, favours compounds with a hit. Of some 83,000 tested, about 20% had one in any assay.
Reported Metric: growth (%)

>>> test_result("COc1ccc(Nc2cc(NC(=O)CNc3cc(OC)c(Cl)c(OC)c3Cl)ncn2)cc1")
-1.25
>>> test_result("O=C1c2ccccc2C(=O)c2c1oc1c2c(=O)[nH]c2ccccc21")
104
>>> test_result("Cc1cc(C)n(-c2nc(-c3cccs3)c(C#N)c(=O)[nH]2)n1")
93.8
>>> test_result("C[C@H](Oc1cc(-c2cnn(C3CCNCC3)c2)cnc1N)c1c(Cl)ccc(F)c1Cl")
68
>>> test_result("CCCCn1c(=O)c(/C=C/C(=O)/C=C/c2ccc(OC)cc2)cc2cc(Cl)ccc21")
91.6
>>> test_result("O=c1[nH]nc(-c2ccc(Br)cc2)c2sc(NC(=S)Nc3ccc(Cl)cc3)nc12")
100

====

System: NCI-H322M lung
Assay: NCI-60 one-dose screen, 48 h (100 = growth as untreated, 0 = no growth, -100 = all killed)
Details: 10 µM unless noted
This is part of a sample that, as a whole, favours compounds with a hit. Of some 83,000 tested, about 20% had one in any assay.
Each entry below carries its reported growth.
Reported Metric: growth (%)

>>> test_result("COc1ccc(-c2cn(-c3ccc(Cl)cc3)c(=S)[nH]2)cc1OC")
57.4
>>> test_result("COC(=O)c1nc(-c2ccccc2)oc1S(=O)(=O)n1nc(C)cc1N")
91.8
>>> test_result("COc1cc(C2=NN(C(C)=O)C(c3cccc(Nc4ccnc5cc(C(F)(F)F)ccc45)c3)C2)cc(OC)c1OC (centres undefined)")
68.3
>>> test_result("COc1ccc2[nH]c(=O)c(/C=C/C(=O)c3ccccc3OC)cc2c1")
18.3
>>> test_result("N#C/C(=C/c1ccc(O)c([N+](=O)[O-])c1)c1nc(-c2ccc([N+](=O)[O-])cc2)cs1")
52.8
>>> test_result("CCOC(=O)/C=C1\\SC(=Nc2ccc(C#N)cc2)N(CCN2C(=O)/C(=C/C(=O)OCC)SC2=Nc2ccc(C#N)cc2)C1=O")
86.6
>>> test_result("N#Cc1c(NC(=O)c2cccs2)[n+]([O-])c2cc(C(F)(F)F)ccc2[n+]1[O-]")
93.7
>>> test_result("Cc1ccc(SC2c3ccc(C)cc3Oc3nc(N)c(C#N)c(N)c32)cc1 (centres undefined)")
104
>>> test_result("CCOC(=O)c1ccc(Nc2ncnc3ccc(NC(=O)c4ccccc4)cc23)cc1")
95.6

====

Tested on: A498 renal
Test: NCI-60 one-dose screen, 48 h
Details: 10 µM unless noted
Procedure: Growth inhibition of the A498 human tumor cell line is measured as a screen for anti-cancer activity. Cells are grown in 96 well plates and exposed to the test compound for 48 hours. Compounds are tested at a single concentration, which is 10^-5 M for most compounds. The reported endpoint is percent growth (GI% or GIPRCNT), where numbers from 0 - 100% represent growth inhibition, and numbers from -100% - 0 represent cell death. For example, a value of 40 represents 60% growth inhibition. […]
Compounds without any hit were thinned out: in the full panel of roughly 83,000, 20% have a hit. Active and inactive are the calls of the source. How the source made its calls: active means growth percent below 10; inactive means the rest.
Outcomes: 1 (yes) = active, 0 (no) = inactive

>>> class_name("C=C(C)[C@@H]1CC[C@]2(C(=O)n3ccnc3)CC[C@]3(C)[C@H](CC[C@@H]4[C@@]5(C)CCCNC(C)(C)[C@@H]5CC[C@]43C)[C@@H]12")
"0 (no)"
>>> class_name("COc1ccc(N(C)c2nc(Cl)nc3ccn(C)c23)cc1")
"1 (yes)"
>>> class_name("CC1CCN(CCCCCOc2ccc3oc4cc(Cl)ccc4c(=O)c3c2)CC1")
"0 (no)"
>>> class_name("CC(C)(C)c1nc2c(s1)c1nc(N)ncc1c1ccc(NS(=O)(=O)c3c(F)cccc3F)c(F)c12")
"1 (yes)"
